# Kd per entry
SYSTEM: T1, hStn1 (Homo sapiens, UniProt Q9H668 1-368)
T1 sequence: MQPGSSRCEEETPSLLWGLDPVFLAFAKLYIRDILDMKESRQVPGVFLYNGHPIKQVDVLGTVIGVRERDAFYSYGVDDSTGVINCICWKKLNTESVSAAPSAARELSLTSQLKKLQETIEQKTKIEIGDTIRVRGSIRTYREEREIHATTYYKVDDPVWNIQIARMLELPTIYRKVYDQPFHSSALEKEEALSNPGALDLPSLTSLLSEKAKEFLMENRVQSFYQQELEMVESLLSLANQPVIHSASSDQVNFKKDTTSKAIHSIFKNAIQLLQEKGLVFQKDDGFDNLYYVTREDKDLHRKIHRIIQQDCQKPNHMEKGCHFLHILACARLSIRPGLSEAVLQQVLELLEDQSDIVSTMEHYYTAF
TEST_DESCRIPTION: fluorescence polarization; FP: 100 mM NaCl, 5 mM MgCl2, 1 mM DTT, 5% glycerol, 1 mg/mL BSA, 2.5 nM 6-FAM DNA, room temperature; pH not stated
PROTOCOL_CONDITIONS: protein: recombinant; tags: none stated after TEV cleavage (his-MBP fusion removed); single strand

Q) Which Kd is listed for TTAGGGTTAGGG (ssDNA) [tel12] ?
A) ~1000 nM

Q) Param item = GTTACGAAATACGGACAC (ssDNA) [rand18] ; retrieve measured Kd.
A) ~200 nM

Turning now to a further binder:
Q) Requested read-out: Kd. Entry: TTAGGGTTAGGGTTAGGG (ssDNA) [tel18]
A) ~200 nM

All values here come from paper PMC3691326.
